System: P388 leukemia ip, CD2F1 mice, survival T/C
Assay Procedure: NCI In Vivo Anticancer Drug Screen. Data for tumor model P388 Leukemia (intraperitoneal) in CD2F1 (CDF1) mice
Condition Set: endpoint: median survival time; dose: 50.0 mg/kg/injection; schedule: Q01DX009 (ip); vehicle: Klucel (hydroxypropylcellulose) (HPC); higher = longer survival
Description: The antitumor activity of compounds was measured in mice bearing transplantable tumors. Survival or tumor size were measured and the results are expressed as the measurement made in the treated group (T) divided by the measurement made in the vehicle treated control group (C). The tumor model used in this assay is P388 Leukemia (intraperitoneal) in CD2F1 (CDF1) mice
Toxic doses and inconclusive results are not listed.
Measurement Kind: T/C

>  <Compound>
O=[N+]([O-])c1ccccc1OCC1CO1 (stereo not given)

>  <T/C>
105 % of control

$$$$

Record T/C for all entries; do not skip any.
1. CC(=O)CC(c1ccccc1)C(Sc1ccccc1)(Sc1ccccc1)Sc1ccccc1 (stereo not given)
2. C#CC(CC)(CC)N1CC(OC(=O)NCC=C)C1
3. O=C1NC(=O)C(c2ccccc2)(c2ccccc2)N1S(=O)(=O)c1ccccc1
4. CN(C(=S)SSC(=S)N(C)c1ccccc1)c1ccccc1

101 % of control
100 % of control
100 % of control
93 % of control

// provenance: PubChem BioAssay AID330
